# Test system: HeLa Kyoto;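 also: synchronized HeLa Kyoto cells (double thymidine block for G1/S, nocodazole release for mitosis), protein amounts in NP-40 versus SDS lysates quantified by mass spectrometry, three biological replicates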
# assay-details: solubility change mitosis vs G1/S (difference of NP-40 vs SDS log2 ratios) (log2 ratio difference); higher = more soluble in mitosis
measurement-kind: solubility change mitosis (log2)
Would you mind answering with just the numeric figure?

Provide measured solubility change mitosis (log2) on HeLa Kyoto for MAAAAAAGEARRVLVYGGRGALGSRCVQAFRARNWWVASVDVVENEEASASIIVKMTDSFTEQADQVTAEVGKLLGEEKVDAILCVAGGWAGGNAKSKSLFKNCDLMWKQSIWTSTISSHLATKHLKEGGLLTLAGAKAALDGTPGMIGYGMAKGAVHQLCQSLAGKNSGMPPGAAAIAVLPVTLDTPMNRKSMPEADFSSWTPLEFLVETFHDWITGKNRPSSGSLIQVVTTEGRTELTPAYF [QDPR] please.
-0.0466

Provide measured solubility change mitosis (log2) on HeLa Kyoto for MAHAPARCPSARGSGDGEMGKPRNVALITGITGQDGSYLAEFLLEKGYEVHGIVRRSSSFNTGRIEHLYKNPQAHIEGNMKLHYGDLTDSTCLVKIINEVKPTEIYNLGAQSHVKISFDLAEYTADVDGVGTLRLLDAVKTCGLINSVKFYQASTSELYGKVQEIPQKETTPFYPRSPYGAAKLYAYWIVVNFREAYNLFAVNGILFNHESPRRGANFVTRKISRSVAKIYLGQLECFSLGNLDAKRDWGHAKDYVEAMWLMLQNDEPEDFVIATGEVHSVREFVEKSFLHIGKTIVWEGKNENEVGRCKETGKVHVTVDLKYYRPTEVDFLQGDCTKAKQKLNWKPRVAFDELVREMVHADVELMRTNPNA [GMDS] please.
-0.00656

Provide measured solubility change mitosis (log2) on HeLa Kyoto for MADQPKPISPLKNLLAGGFGGVCLVFVGHPLDTVKVRLQTQPPSLPGQPPMYSGTFDCFRKTLFREGITGLYRGMAAPIIGVTPMFAVCFFGFGLGKKLQQKHPEDVLSYPQLFAAGMLSGVFTTGIMTPGERIKCLLQIQASSGESKYTGTLDCAKKLYQEFGIRGIYKGTVLTLMRDVPASGMYFMTYEWLKNIFTPEGKRVSELSAPRILVAGGIAGIFNWAVAIPPDVLKSRFQTAPPGKYPNGFRDVLRELIRDEGVTSLYKGFNAVMIRAFPANAACFLGFEVAMKFLNWATPNL [SLC25A20] please.
-0.108

Provide measured solubility change mitosis (log2) on HeLa Kyoto for MGHRFLRGLLTLLLPPPPLYTRHRMLGPESVPPPKRSRSKLMAPPRIGTHNGTFHCDEALACALLRLLPEYRDAEIVRTRDPEKLASCDIVVDVGGEYDPRRHRYDHHQRSFTETMSSLSPGKPWQTKLSSAGLIYLHFGHKLLAQLLGTSEEDSMVGTLYDKMYENFVEEVDAVDNGISQWAEGEPRYALTTTLSARVARLNPTWNHPDQDTEAGFKRAMDLVQEEFLQRLDFYQHSWLPARALVEEALAQRFQVDPSGEIVELAKGACPWKEHLYHLESGLSPPVAIFFVIYTDQAGQWRIQCVPKEPHSFQSRLPLPEPWRGLRDEALDQVSGIPGCIFVHASGFIGGHRTREGALSMARATLAQRSYLPQIS [C12ORF10] please.
-0.074

Provide measured solubility change mitosis (log2) on HeLa Kyoto for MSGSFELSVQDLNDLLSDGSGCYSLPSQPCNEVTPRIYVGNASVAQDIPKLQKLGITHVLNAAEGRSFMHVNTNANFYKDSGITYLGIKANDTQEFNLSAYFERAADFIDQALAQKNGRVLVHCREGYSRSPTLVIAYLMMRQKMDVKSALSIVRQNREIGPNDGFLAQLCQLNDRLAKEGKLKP [DUSP3] please.
0.131

Provide measured solubility change mitosis (log2) on HeLa Kyoto for MQLEIQVALNFIISYLYNKLPRRRVNIFGEELERLLKKKYEGHWYPEKPYKGSGFRCIHIGEKVDPVIEQASKESGLDIDDVRGNLPQDLSVWIDPFEVSYQIGEKGPVKVLYVDDNNENGCELDKEIKNSFNPEAQVFMPISDPASSVSSSPSPPFGHSAAVSPTFMPRSTQPLTFTTATFAATKFGSTKMKNSGRSNKVARTSPINLGLNVNDLLKQKAISSSMHSLYGLGLGSQQQPQQQQQPAQPPPPPPPPQQQQQQKTSALSPNAKEFIFPNMQGQGSSTNGMFPGDSPLNLSPLQYSNAFDVFAAYGGLNEKSFVDGLNFSLNNMQYSNQQFQPVMAN [TOB1] please.
-0.114

Provide measured solubility change mitosis (log2) on HeLa Kyoto for MEGSLEREAPAGALAAVLKHSSTLPPESTQVRGYDFNRGVNYRALLEAFGTTGFQATNFGRAVQQVNAMIEKKLEPLSQDEDQHADLTQSRRPLTSCTIFLGYTSNLISSGIRETIRYLVQHNMVDVLVTTAGGVEEDLIKCLAPTYLGEFSLRGKELRENGINRIGNLLVPNENYCKFEDWLMPILDQMVMEQNTEGVKWTPSKMIARLGKEINNPESVYYWAQKNHIPVFSPALTDGSLGDMIFFHSYKNPGLVLDIVEDLRLINTQAIFAKCTGMIILGGGVVKHHIANANLMRNGADYAVYINTAQEFDGSDSGARPDEAVSWGKIRVDAQPVKVYADASLVFPLLVAETFAQKMDAFMHEKNED [DHPS] please.
-0.0341

Provide measured solubility change mitosis (log2) on HeLa Kyoto for MRKVVLITGASSGIGLALCKRLLAEDDELHLCLACRNMSKAEAVCAALLASHPTAEVTIVQVDVSNLQSVFRASKELKQRFQRLDCIYLNAGIMPNPQLNIKALFFGLFSRKVIHMFSTAEGLLTQGDKITADGLQEVFETNVFGHFILIRELEPLLCHSDNPSQLIWTSSRSARKSNFSLEDFQHSKGKEPYSSSKYATDLLSVALNRNFNQQGLYSNVACPGTALTNLTYGILPPFIWTLLMPAILLLRFFANAFTLTPYNGTEALVWLFHQKPESLNPLIKYLSATTGFGRNYIMTQKMDLDEDTAEKFYQKLLELEKHIRVTIQKTDNQARLSGSCL [HSD17B7] please.
-0.161

Provide measured solubility change mitosis (log2) on HeLa Kyoto for MARMNRPAPVEVTYKNMRFLITHNPTNATLNKFIEELKKYGVTTIVRVCEATYDTTLVEKEGIHVLDWPFDDGAPPSNQIVDDWLSLVKIKFREEPGCCIAVHCVAGLGRAPVLVALALIEGGMKYEDAVQFIRQKRRGAFNSKQLLYLEKYRPKMRLRFKDSNGHRNNCCIQ [PTP4A1] please.
-0.0406

Provide measured solubility change mitosis (log2) on HeLa Kyoto for MVELMFPLLLLLLPFLLYMAAPQIRKMLSSGVCTSTVQLPGKVVVVTGANTGIGKETAKELAQRGARVYLACRDVEKGELVAKEIQTTTGNQQVLVRKLDLSDTKSIRAFAKGFLAEEKHLHVLINNAGVMMCPYSKTADGFEMHIGVNHLGHFLLTHLLLEKLKESAPSRIVNVSSLAHHLGRIHFHNLQGEKFYNAGLAYCHSKLANILFTQELARRLKGSGVTTYSVHPGTVQSELVRHSSFMRWMWWLFSFFIKTPQQGAQTSLHCALTEGLEILSGNHFSDCHVAWVSAQARNETIARRLWDVSCDLLGLPID [RDH11] please.
-0.137

Value source: the supplement of paper PMC5998384
